- Read-out: glucuronosyltransferase (UGT1A1), UGT1A1 (gene 54658)
- assay_comment: CLD_UGT1A1_48hr: CellzDirect (CLD) Gene Expression Assay for glucuronosyltransferase (UGT1A1) at 48 hours (AID 2283709);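 also: actives increase expression relative to DMSO so potency refers to induction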
Records with an inconclusive call do not appear. Calls of active or inactive are those of the source. The calls were made as follows: active = hit-call score of the fitted dose curve at least 0.9, where 1 is the maximum; inconclusive = response in the unintended direction; inactive = score below 0.9.
Labels: y = active, n = inactive

{"columns": ["molecule", "label"],
 "data": [
  ["CCCCOCCOCCOCc1cc2c(cc1CCC)OCO2", "y"],
  ["CCCCOC(=O)[C@@H](C)Oc1ccc(Oc2ccc(C(F)(F)F)cn2)cc1", "n"],
  ["OB(O)O", "n"],
  ["COC(=O)c1cccc(C)c1S(=O)(=O)NC(=O)Nc1nc(OCC(F)(F)F)nc(N(C)C)n1", "n"],
  ["COC(=O)c1ccccc1S(=O)(=O)NC(=O)Nc1nc(OC(F)F)cc(OC(F)F)n1", "n"],
  ["C#CCOC(=O)[C@@H](C)Oc1ccc(Oc2ncc(Cl)cc2F)cc1", "n"],
  ["CCCCCOC(=O)COc1cc(N2C(=O)C3=C(CCCC3)C2=O)c(F)cc1Cl", "n"],
  ["CN(C)C(=O)Nc1ccc(Cl)c(Cl)c1", "n"],
  ["CCCOC(=O)NCCCN(C)C", "n"],
  ["CCCCCCC(C)OC(=O)COc1nc(F)c(Cl)c(N)c1Cl (configuration not stated)", "n"],
  ["CCOC(=O)[C@H](C)Oc1ccc(Oc2nc3ccc(Cl)cc3o2)cc1", "n"],
  ["c1ccc2[nH]c(-c3cscn3)nc2c1", "n"]
]}

###

- assay_comment: CCTE_Harrill_HTTr_Apoptosis_DMEM_6hr: (Pilot) CCTE's 6-hour Apoptosis Assessment for the High-Throughput Transcriptomics (HTTr) Platform, in MCF-7 cells cultured in DMEM + 10% fetal bovine serum, Harrill Lab (AID 2283981)
Calls of active or inactive are those of the source. The calls were made as follows: active = hit-call score of the fitted dose curve at least 0.9, where 1 is the maximum; inactive = score below 0.9.

{"columns": ["compound", "outcome"],
 "data": [
  ["CC(C)CCCCCCc1ccc(O)cc1", "inactive"],
  ["CC(C)(c1ccc(O)cc1)c1ccc(O)cc1", "inactive"],
  ["Cc1nn(C)c(Oc2ccccc2)c1C=NOCc1ccc(C(=O)OC(C)(C)C)cc1", "inactive"],
  ["C=CCOC(Cn1ccnc1)c1ccc(Cl)cc1Cl (stereo not given)", "inactive"],
  ["C[C@]12CC[C@@H]3c4ccc(O)cc4C[C@@H](CCCCCCCCCS(=O)CCCC(F)(F)C(F)(F)F)[C@H]3[C@@H]1CC[C@@H]2O (stereo not given in full)", "inactive"]
]}

###

- assay_comment: BSK_SAg_SRB: Viability Assessment in the BioMAP Diversity Plus: SAg Assay (AID 2283096);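 also: cells read one day after compound addition; hits may be either gain or loss of signal compared with DMSO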
- condition_label: primary human HUVEC with PBMC
The source made the active and inactive calls. How the source made its calls: active means hit-call score of the fitted dose curve at least 0.9, where 1 is the maximum; inactive means score below 0.9.
Outcomes: label 1 (active), label 0 (inactive)

{"columns": ["compound", "label"],
 "data": [
  ["CCOC(=O)[C@H](C)Oc1ccc(Oc2nc3ccc(Cl)cc3o2)cc1", "label 0"],
  ["CC(=O)S[C@@H]1CC2=CC(=O)CC[C@]2(C)[C@H]2CC[C@@]3(C)[C@@H](CC[C@@]34CCC(=O)O4)[C@H]12", "label 1"],
  ["CCCCOC(=O)[C@@H](C)Oc1ccc(Oc2ccc(C(F)(F)F)cn2)cc1", "label 0"],
  ["O=C(O)C1(C(=O)Nc2ccc(Cl)cc2Cl)CC1", "label 0"],
  ["S=C([S-])NCCNC(=S)[S-].[Mn+2]", "label 0"],
  ["C#CCOC(=O)[C@@H](C)Oc1ccc(Oc2ncc(Cl)cc2F)cc1", "label 0"],
  ["O=C(c1ccc(O)cc1O)c1ccc(O)cc1O", "label 0"],
  ["Cc1nn(C)c(Oc2ccccc2)c1C=NOCc1ccc(C(=O)OC(C)(C)C)cc1", "label 1"],
  ["CCCCC(CC)CN1C(=O)C2C3C=CC(C3)C2C1=O (stereo not given)", "label 1"],
  ["C[C@]12CC[C@@H]3c4ccc(O)cc4C[C@@H](CCCCCCCCCS(=O)CCCC(F)(F)C(F)(F)F)[C@H]3[C@@H]1CC[C@@H]2O (stereo not given in full)", "label 0"]
]}
